Test system: Human papillomavirus type 1a protein E7 (residues 44-93)
Experiment: HPV1a E7 fragment binders on microarrays, primary screen, biochemical, small-molecule microarray, residues 44-93, 635 nm fluorescence (AID 1108);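 also: E7 fragment applied at 1 µg/mL in TBST for 1 h at 4 C; score combines spot fluorescence with its signal to noise ratio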
Settings: small-molecule microarray binding, fluorescence 635 nm; higher = more signal
In this section, each of the molecules is paired with its reported composite z-score.
Please respond with just the number, no unit label.

Please review the entries below; each comes with its answer.
>  <MOLECULE>
O=C1c2ccccc2[C@](Cc2ccccc2I)(C(=O)NCCN2CCOCC2)[C@H](c2ccc(CO)cc2)N1Cc1ccccc1Cl

>  <composite z-score>
-0.612

$$$$
>  <MOLECULE>
CC1CC/C=C\[C@H]2OC34C=CCN(Cc5ccccc5)C(=O)[C@H]3N(CCCO)C(=O)[C@@H]4C2C(=O)O1 (some centres undefined)

>  <composite z-score>
-0.537

$$$$
>  <MOLECULE>
CN(C)CCCC[C@@H]1NC(=O)[C@@H]2C[C@H](C(=O)NCCCCCCN)[C@H](c3cccc(OCCO)c3)N2C1=O

>  <composite z-score>
1.29

$$$$

Now, please, on to the next molecule.
Let me know recorded composite z-score for CCCC[C@H]1OB(O)C[C@H]2C1=C(COC)C[C@H]1C(=O)N(C)C(=O)[C@H]12 , thanks.
0.343

----------
Target: Left-right determination factor 2 (Homo sapiens)
Test: LEFTY2 binders on small-molecule microarrays, primary screen, biochemical, small-molecule microarray, 635 nm fluorescence scan (AID 1110)
Conditions: LEFTY2 binding, higher = more signal
EXPERIMENTAL_ENDPOINT: composite z-score

// below: answered compounds
>  <INPUT_SMILES>
O=C(NC1CC1)[C@@H]1c2ccccc2C(=O)N(Cc2ccccc2Cl)[C@H]1c1ccc(CO)cc1

>  <composite z-score>
0.697

$$$$
>  <INPUT_SMILES>
O=C1[C@@]23C=C(Br)[C@H](C[C@@H]2CCOC3)[C@@]12CO2

>  <composite z-score>
0.459

$$$$
>  <INPUT_SMILES>
NC(=O)NCC#Cc1ccc2c(c1)[C@]1(C(=O)N2)[C@H](C(=O)Nc2nc3ccccc3s2)[C@H]2C(=O)O[C@H](c3ccccc3)[C@H](c3ccccc3)N2[C@@H]1c1ccccc1OCCO

>  <composite z-score>
0.235

$$$$
>  <INPUT_SMILES>
C=C[C@H](C)[C@@H](OC(=O)Nc1ccc(OC)cc1)c1ccc(O)c2ccccc12

>  <composite z-score>
-0.239

$$$$

Please give the documented composite z-score of C=C[C@H](CO[Si](CC)(CC)CC)N(Cc1ccc(OC(C)=O)c(OC)c1)S(=O)(=O)c1ccc(Br)cc1
0.537

----------
Assay: MM1S cell viability effects, profiling panel, calcein-AM fluorescence, 48 h, basal (AID 1165);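 also: viability of MM1S multiple myeloma cells under basal unstimulated conditions; test concentration not given here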
Details: higher = more signal
EXPERIMENTAL_ENDPOINT: z-score
Form: value (number only, do not type unit).

Solved entries (count: 3):
>  <COMPOUND>
C[C@@]1([C@@H](NC(=O)c2ccc(-c3ccccc3)cc2)c2ccc(Cl)cc2)C[C@H]1C1CCCCC1

>  <z-score>
-3.43

$$$$
>  <COMPOUND>
COc1ccc([Si](C)(C)[C@@H]2[C@@H](CCO)O[C@]3(C(=O)N(Cc4ccc(N(C=O)c5ccccc5)cc4)c4ccccc43)[C@H]2C)cc1

>  <z-score>
-1.94

$$$$
>  <COMPOUND>
O=C(NCCO)C1=C[C@H](Oc2ccccc2I)[C@@H](O)[C@H](N(Cc2ccco2)C(=O)Cc2ccccc2)C1

>  <z-score>
0.426

$$$$

Give z-score for CC(=O)NCCCC[C@@H]1NC(=O)[C@H]2C[C@@H](C(=O)NCCCCCCNC(=O)CS)[C@@H](c3ccc(O)cc3)N2C1=O
-0.197

Please look at this compound and report its z-score: COc1ccc([Si](C)(C)[C@@H]2[C@@H](CC(=O)N3CCC[C@H]3CO)O[C@]3(C(=O)N(c4ccccc4)c4ccccc43)[C@H]2C)cc1
-0.011

Give the measured z-score for NC(=O)NCC#Cc1ccc2c(c1)[C@]1(C(=O)N2)[C@H](C(N)=O)[C@H]2C(=O)O[C@H](c3ccccc3)[C@H](c3ccccc3)N2[C@@H]1c1ccc(O)cc1
0.201

Consider the compound [N-]=[N+]=Nc1ccccc1[C@H]1OC(c2ccc(OCCCO)cc2)=N[C@@]1(CCS(=O)(=O)c1ccccc1)C(=O)NCC(O)CO (stereo partly drawn) and give its recorded z-score.
-0.826

Please give the documented z-score of C=CCC(OC(C)=O)[C@@H]1[C@@H](N(Cc2cccc3ccccc23)C(=O)c2ccc(-c3ccccc3)cc2)c2cc(OCCCO)ccc2N1C(=O)c1ccc2ccccc2c1 (stereo partly drawn)
0.279

----------
# key: entry, value: z-score
Experiment: A549 lung cancer cell viability effects, profiling panel, resazurin fluorescence, 24 h, PK04 Diversity Set (AID 1171); also: test concentration not given here
Details: higher = more signal, called active from +8 up or from −8 down
Just the number, please.

>  <MOLECULE>
C=CCC(OC(C)=O)[C@@H]1[C@@H](N(Cc2cc3ccccc3o2)C(=O)c2cccc3ccccc23)c2cc(OCCCO)ccc2N1C(=O)c1ccc(-c2ccccc2)cc1 (stereo partly drawn)

>  <z-score>
-0.808

$$$$

Give the reported value of z-score for this record: O=C1C[C@@](C(=O)NC2CC2)(c2ccc([N+](=O)[O-])cc2)[C@@H](c2ccc(CO)cc2I)N1C1CCCCC1
0.0067

Look up and report measured z-score for this entry: COc1ccc(/C=C/C=O)cc1
-0.925

Please supply the value of reported z-score for the item C=CCC(OC(C)=O)[C@@H]1[C@@H](N(Cc2ccc(-c3ccccc3)cc2)C(=O)c2cccc3ccccc23)c2cc(OCCCO)ccc2N1C(=O)c1ccc(-c2ccccc2)cc1 (stereo partly drawn)
0.126

Identify the reported z-score for the following entry. CCCCC(CC)C(O)C1C=CC2C(=O)N(Cc3ccccc3)C(=O)C2N1n1cnnc1 (stereo not drawn)
-0.56

# return recorded z-score for entry [N-]=[N+]=NCc1ccccc1C[C@]1(C(N)=O)COC(c2ccc(OCCCO)cc2)=N1
-1.1

Indicate the recorded z-score value for this molecule: Cc1nc2cc(Br)ccc2c(=O)o1
0.235

Find the measured z-score of O=C1N[C@@H](Cc2ccccc2)C(=O)N2[C@@H]1C[C@@H](C(=O)O)[C@H]2c1cccc(OCCO)c1 and report it.
2.99

----------
Experiment: binders of probe aHhip on microarray, primary screen, stem cell growth factor project, biochemical, small-molecule microarray, fluorescence 635/667 (AID 1087);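 also: score merges spot fluorescence at 667nm with spot signal to noise ratio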
Conditions: higher = more signal
EXPERIMENTAL_ENDPOINT: composite z-score
Give the figure by itself; no unit, no explanation.

These recorded examples may help you get a feel for the data.
>  <INPUT_SMILES>
COc1ccc(C#Cc2ccc3c(c2)[C@]2(C(=O)N3)[C@H](C(=O)Nc3nc4ccccc4s3)[C@H]3C(=O)O[C@H](c4ccccc4)[C@H](c4ccccc4)N3[C@@H]2c2ccc(O)cc2)cc1

>  <composite z-score>
-0.511

$$$$
>  <INPUT_SMILES>
COCCOC(=O)N1C(=O)[C@@]2(c3cc(C#Cc4ccc(OC)cc4)ccc31)[C@H](c1ccc(OCCO)cc1)N1[C@H](c3ccccc3)[C@H](c3ccccc3)OC(=O)[C@H]1[C@@H]2C(=O)N1CCN(c2ncccn2)CC1

>  <composite z-score>
0.0176

$$$$
>  <INPUT_SMILES>
C=C[C@H](C)[C@@H](OC(=O)Nc1ccc(OC)cc1)c1ccc(O)c2ccccc12

>  <composite z-score>
-0.37

$$$$
>  <INPUT_SMILES>
CC(C)=CCN[C@H](CO)c1ccccc1

>  <composite z-score>
0.0129

$$$$

Name the recorded composite z-score of the molecule listed here: C=CCN1C(=O)[C@]2(O[C@H](CCn3cc([C@H](O)c4ccccc4)nn3)[C@@H]([Si](C)(C)c3ccc(OC)cc3)[C@@H]2C)c2cc(N3CCC3=O)ccc21
0.0505

----------
Assay: small-molecule binders of probe aNOTCH2, primary screen, biochemical, small-molecule microarray, 635/667 nm fluorescence (AID 1121);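 also: score merges feature fluorescence read at 667 nm with its signal to noise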
Conditions: higher = more signal
Could you please classify the records by composite z-score using these ranges: low value = under -0.1, medium value = from -0.1 up to 0.09, high value = 0.09 and over

Consider the worked cases shown below.
>  <MOLECULE>
O=C1O[C@H](c2ccccc2)[C@H](c2ccccc2)N2[C@H]1[C@@H](C(=O)N1CCCCCCC1)[C@]1(C(=O)Nc3ccc(C#CCCO)cc31)[C@H]2c1ccccc1OCCO

>  <CLASS_ASSIGNMENT>
high value

$$$$
>  <MOLECULE>
[N-]=[N+]=NCc1ccccc1C[C@]1(C(N)=O)COC(c2ccc(OCCCO)cc2)=N1

>  <CLASS_ASSIGNMENT>
high value

$$$$

Which class holds COCCOC(=O)N1C(=O)[C@@]2(c3cc(C#CCNC(N)=O)ccc31)[C@H](C(=O)Nc1nc3ccccc3s1)[C@H]1C(=O)O[C@H](c3ccccc3)[C@H](c3ccccc3)N1[C@@H]2c1ccc(OCCO)cc1 ?
high value

Class for CCCCCN1CC=CC23O[C@@H]4/C=C\CCC(C)OC(=O)C4[C@H]2C(=O)N(C(C)CO)[C@@H]3C1=O (stereo not given in full) ?
low value

Bin? CO[C@H]1O[C@H](CO)[C@@H](OC(=O)Nc2ccc(C(F)(F)F)cc2)[C@H](OC(=O)Nc2ccc3c(c2)OCO3)[C@@H]1OC(=O)Nc1ccc2c(c1)OCO2
low value
